RECORDED METRIC: melting point (°C)
One number for each entry, in °C.

Reference set, count: 6
MOLECULE: CCOc1ccc(NC(=O)N(Cc2ccncc2)c2nc(C)c(S(=O)(=O)NC3CC3)s2)cc1
UNITS LABEL: °C
melting point: 200
--
MOLECULE: COCCN(C(=O)Nc1ccc(N2CCOCC2)cc1)c1nc(C)c(S(N)(=O)=O)s1
UNITS LABEL: °C
melting point: 201
--
MOLECULE: CCOc1ccc(NC(=O)N(CCc2ccccc2)c2nc(C)c(S(=O)(=O)NCc3ccccc3)s2)cc1
UNITS LABEL: °C
melting point: 156
--
MOLECULE: CCCN(C(=O)Nc1ccc(OCC)cc1)c1nc(C)c(S(=O)(=O)NC)s1
UNITS LABEL: °C
melting point: 154
--
MOLECULE: CNS(=O)(=O)c1sc(N(Cc2ccccn2)C(=O)Nc2ccc(N3CCOCC3)cc2)nc1C
UNITS LABEL: °C
melting point: 206
--
MOLECULE: CCOc1ccc(NC(=O)N(C)c2nc(C)c(S(=O)(=O)NCCn3ccnn3)s2)cc1
UNITS LABEL: °C
melting point: 154

State the recorded melting point for every item in the following list.
1. C=CCN(C(=O)Nc1ccc(OCC)cc1)c1nc(C)c(S(=O)(=O)NC)s1
2. Cc1nc(N(C)C(=O)Nc2ccc(N3CCOCC3)cc2)sc1S(=O)(=O)NC1CC1

Output line:
162
235

Hey, can you go through the list below and give me melting point for every item?
1. CCCN(C(=O)Nc1ccc(COC)cc1)c1nc(C)c(S(=O)(=O)NCC(F)(F)F)s1
2. CCCOc1ccc(NC(=O)N(CCOC)c2nc(CC)c(S(N)(=O)=O)s2)cc1
3. CCOc1ccc(NC(=O)N(CCCN(C)C)c2nc(C)c(S(=O)(=O)NC)s2)cc1

Output line:
1: 143; 2: 163; 3: 185

Can you give me melting point for all of these, one by one?
1. CCOc1ccc(NC(=O)N(CCOc2ccccc2)c2nc(C)c(S(=O)(=O)NC)s2)cc1
2. CN(C(=O)Nc1ccc(OC(F)(F)C(F)F)cc1)c1nc(Cl)c(S(=O)(=O)N(C)C)s1

Output line:
158
168
